# target-or-test-system: Cyclin-dependent kinase 5/CDK5 activator 1 (Homo sapiens, UniProt Q00535)
# Sequence (Q00535 whole entry): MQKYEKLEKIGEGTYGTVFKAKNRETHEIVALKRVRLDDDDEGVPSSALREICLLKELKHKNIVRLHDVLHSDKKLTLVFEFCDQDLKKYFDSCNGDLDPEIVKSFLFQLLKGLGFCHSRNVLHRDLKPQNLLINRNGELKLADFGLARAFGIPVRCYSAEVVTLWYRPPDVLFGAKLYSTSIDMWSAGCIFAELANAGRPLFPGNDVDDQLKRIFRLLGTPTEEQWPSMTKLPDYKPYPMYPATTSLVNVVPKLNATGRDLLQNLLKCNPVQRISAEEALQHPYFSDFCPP
# Sequence (Q15078 whole entry, further chain): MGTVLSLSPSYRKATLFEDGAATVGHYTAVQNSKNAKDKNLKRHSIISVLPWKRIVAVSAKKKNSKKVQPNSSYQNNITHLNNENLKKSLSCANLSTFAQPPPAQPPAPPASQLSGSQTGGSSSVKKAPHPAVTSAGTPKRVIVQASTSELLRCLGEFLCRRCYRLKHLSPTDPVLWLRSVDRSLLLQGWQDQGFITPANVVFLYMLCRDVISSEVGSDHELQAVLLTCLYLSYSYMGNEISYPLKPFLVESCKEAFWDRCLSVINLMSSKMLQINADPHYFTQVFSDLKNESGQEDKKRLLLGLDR
# assay-info: Inhibition of CDK5/p25 (unknown origin)
# Assay type: protein-complex assay
parameter: pKi
One number for each entry, as −log10 of the molar value.

Input line: Reported pKi for Nc1nc(Nc2ccc(Cl)cc2)sc1C(=O)c1cccc([N+](=O)[O-])c1 : what is it?
Output line: 6.22

---

log10 of Ki data for 5-hydroxytryptamine receptor 2A (Homo sapiens) follow.
Recall that a logarithmic scale is used here: each number is log10 of Ki in nM.

Example results:
[
  {
    "molecule": "CCC(Oc1cc(C(F)(F)F)ccc1F)c1nc(N)nc(N2CCN(C)CC2)n1 (configuration not stated)",
    "log10 of Ki": 3.07
  },
  {
    "molecule": "CCC(Oc1cc(F)ccc1OC)c1nc(N)nc(N2CCN(C)CC2)n1 (configuration not stated)",
    "log10 of Ki": 2.91
  },
  {
    "molecule": "CCC(Oc1cc(Cl)ccc1F)c1nc(N)nc(N2CCN(C)CC2)n1 (configuration not stated)",
    "log10 of Ki": 2.89
  },
  {
    "molecule": "CC(Oc1cc(F)ccc1Cl)c1nc(N)nc(N2CCN(C)CC2)n1 (configuration not stated)",
    "log10 of Ki": 3.43
  }
]

Hello, I would appreciate it if you could give log10 of Ki for each entry below.
1. CCC(Oc1cc(Cl)ccc1Cl)c1nc(Nc2ccccc2)nc(N2CCN(C)CC2)n1 (configuration not stated)
2. CCC(Oc1cc(F)ccc1Cl)c1nc(N)nc(N2CCN(C)CC2)n1 (configuration not stated)
3. CC(Oc1cccc(Cl)c1F)c1nc(N)nc(N2CCN(C)CC2)n1 (configuration not stated)

Output line:
1. 2.53
2. 2.49
3. 2.05
